test: clinical; details: male, human, in vivo, 25 mg, t1/2 λz
Assay readout: half-life (min)
# value in min; strip the unit string

Quick one: half-life for Nc1nc(=O)n(C2C=CC(CO)O2)cc1F [β-D-D4FC] ? 269

###

Assay: clinical
Details: male, human, in vivo, 50 mg, AUC(0-τ)
Experimental: Total of 18 HIV-1 infected males, aged 18-55 years, enrolled, 6 per treatment cohort. In Cohort 3, subjects received either 100 mg, or 200 mg, or placebo. The data was analyzed using non-compartmental and two-compartmental models. HIV RNA levels were also determined using quantitative real-time RT-PCR. […]
Assay readout: AUC (ng·h/mL)
# value in ng·h/mL; strip the unit string

Quick one: AUC for Nc1nc(=O)n(C2C=CC(CO)O2)cc1F (stereo not shown) ? 3470
